Reference for the values: the nanobody polyreactivity screen of Harvey et al. (2022)

# test summary: yeast display, Sf9 membrane polyspecificity reagent, FACS + sequencing; frameworks hold sequencing errors

biopolymer sequence: QVQLEESGGGLVQAGGSLRLSCAASGSIFSPNAMGWYRQAPGKERELVAAIDTRDGTTYYADSVKGRFTISRDNAKNTVYLQMNSLKPEDTAVYYCAADQLVGERDYWGQGTQVTVSS
polyreactivity (PSR sort gate): low polyreactivity
//
biopolymer sequence: QVQLVESGGGLVQAGGSLRLSCAASGRIFEKYAMRWYREAPGKERELVAAMTRSGGRTYYADSVKGRFTISRDNAKNTVYLQMNSQKPEDTAVYYCAARYVSRFDWGQGTQVTVSS
polyreactivity (PSR sort gate): high polyreactivity
//
biopolymer sequence: QVQLVESGGGLVQAGGSLRLSCAASGSIFVYNAMGWYRQAPGKERELVASITWSGGRTYYADSVKGRFTISRDNAKNTVYLQMNSLKPEDTAVYYCAADSPRGYDYWGQGTQVTVSS
polyreactivity (PSR sort gate): high polyreactivity
//
biopolymer sequence: QDQLVESGGGLVQAGGSLRLSCAASGFTFRDYTRGWYRQAPGKERELVAAISLSGGSTYYADSVKGRFTISRDNAKNTVYFQMNSLKPEDTAVYYCAAGYLLWRTWDYGAGHNFWGQGTQVTVSS
polyreactivity (PSR sort gate): high polyreactivity
//
biopolymer sequence: QVQLVESGGGLVQAGGSLRLSCAASGITFGEYAMGWYRQAPGKERQLVAAITTSGTSTYYADSVKGRFTISRDNAKNTDYLQMNSLKPEDTAVYYCAAYSRAAAGFYSSRRDYYWGQGTQVSVSS
polyreactivity (PSR sort gate): low polyreactivity
//
biopolymer sequence: QVQLVESGGGLVQAGGSLGLSCAASGSILYYNAMGWYRQAPGKERELVAAISWSGGSKYDADSVKGRFTISRDNAKNTVYLQMNSQKPEDTAVYYCLYYRSDEMDYWGQGTQVTVSS
polyreactivity (PSR sort gate): high polyreactivity
//
biopolymer sequence: QVQLEESGGGLVQAGGRLRLSCAASGRIFAVNAMGWYRQAPGKERELVASITSRGGSTYYADSVYGRFTISRDNAKNTVYLQMPSLKPEDTAVDYCASPYYSLTTNDYDYSGQGTQVTVSS
polyreactivity (PSR sort gate): high polyreactivity
//
biopolymer sequence: QVQLVESGGGLVQAGGSLRLSCAASGSIFGANTMGWYRQAPGKERELVAGITSGARTYYADSVKGRFTISRDNAKNTVYLQMNSLKPEDTAVYYCAADTWKVFGVDYWGQGTQVTVSS
polyreactivity (PSR sort gate): high polyreactivity
//
biopolymer sequence: QVQLVESGGGLVQAGGSLRLSCAASGSTFTFNAMGWYRQAPGKERELVAAIRWSTGGTYYADSVKGRFTISRDNAKNTVYLQMNSLKPEDTAVYYCAAQFVPYFYFSKYDYWGQGTQVTVSS
polyreactivity (PSR sort gate): low polyreactivity
//
biopolymer sequence: QVQLVESGGGLVQAGGSLRLSCAASGFIFYLNAMGWYRQAPGKERELVAAISRGGTTYYADSVKGRFTISRDNAKNTVYLQMNSLIPEDTAVYYCAAKDKRWYSRYYWTGYDYWGQGTQVTVSS
polyreactivity (PSR sort gate): high polyreactivity
//
biopolymer sequence: QVQLVESGGGLVQAGGSLRLSCADSGSTFRRNVMGWYRQAPGKERELVASIRSGGTTNYADSVKGRFTISRDNAKNTVYLQMNSLKPEDTAVYYCAAARSRGYYRASAVVLYGYWGQGTQVTVSS
polyreactivity (PSR sort gate): high polyreactivity
//
biopolymer sequence: QVQHVESGRGLVQAGGSLRLSCASSGFTFRRNAMGWYRQAPGKVRELVAVITSSARTNYADSVKGRFTISRDNAKNTVYLQMKSLKPEDTAVYYCNAYGYRQSSSDKYGYWGQCTQVTVSS
polyreactivity (PSR sort gate): high polyreactivity
//
biopolymer sequence: QVQLVESGGGLVQAGGSLRLSCASSGFTFYSYDMGWYRQAPGKERELVAAITWYGGSTYYADSVKGRFTISRDNAKNTVYLQMKSLKQEDTAVYYCAAELFPLQHFWVAYATRRYDYWGQCTQVTVSS
polyreactivity (PSR sort gate): low polyreactivity
//
biopolymer sequence: QVQLVESAGGLVQAGGSLRLSCAASGSILDRYAMGWDRQAPGKERELVAAITYSSGRTYYADSVKGRFTISRDNAKNTVYLQMNSLKPEDTAVYYCAARPFKRSNGGGQYYYWGQGTQLTVSS
polyreactivity (PSR sort gate): high polyreactivity
//
biopolymer sequence: QVQLVESGGGLVQAGGSLRLSCAASGSIFWPNVMGWYRQAPGKDRELVAAIRSDGSTYYADSVKGRFTISRDNAKNTVYLQMNSLKPEDAAVYYCATKFFRQTIYRAKYNYWGQGTQVTVSS
polyreactivity (PSR sort gate): low polyreactivity
//
biopolymer sequence: QGQLVESGGGLVQAGGSLRLSCAAYGSIYRNYAMGSYRQAPGKEREFVAAITTRGGRTYYADSVKGRFTISRDNAKNPVYLQINSLKPEDTAVYYCAARSYSEYNYWGQGTLVTVSS
polyreactivity (PSR sort gate): high polyreactivity
//
biopolymer sequence: QVQLVESGGGLVQAGGSLRLSCAASGRTFNDYAMGWYRQATGKERELVAGITWRGGSTYYADSVKGRFTISRDNAKNTVYLQMNSLKPEDTAVYYCNAVPRRGYSRRDYWGQGTQVTVSS
polyreactivity (PSR sort gate): high polyreactivity
//
biopolymer sequence: QVQLVESGGGLLQAGGSLRLSCAASGFTFSTNAMGWYRQAPGKERDLVAAITWRGGSTYYADSVKGRFTISRDIAKKTVYVQLNSLKPEDTAVYYCAGRSRGSHVSYYKKFDYWGQGTHVTVSS
polyreactivity (PSR sort gate): low polyreactivity
//
biopolymer sequence: QVQLEESRGGLVHAGGSLRLSCAASGYSFYIYAMGWYRQAPGKERELVAAISSSGGRTYYADSVKGRFTISRDNAKNTVYLQMNSLKPEDTAVYYCNALYRYGWLYAPKYNSCGQGTQVTVSS
polyreactivity (PSR sort gate): high polyreactivity
//
biopolymer sequence: QVQLVESGGGLVQAGGSLRLSCAASGFTLEFYAMVWYRQAPGKKRELVARITTYGGSTRYADSVKGRFTISRDNAKNTVYLKMNSLKPEDTAVYNCAARGYGYRNVETYGYWGQGTQVTVSS
polyreactivity (PSR sort gate): high polyreactivity
//
biopolymer sequence: QVQLVESGAGLVQAGGTLRLSCAASGFTCRYYAMGWSRQAPGKERELVASISWSGDSTYYADSVKGRFTISRDNAKNTGYLQMNSLKPEETAFYYCARQTGFPRSYIYRMYYWGQGTQVTVSS
polyreactivity (PSR sort gate): high polyreactivity
